Listed next: entries and their corresponding composite z-score.
Tested on: Chordin-like protein 2 (CHRDL2)
assay_text: compounds binding chordin-like 2 – biochemical, small-molecule microarray, 635 nm fluorescence, primary screen (AID 1126);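 also: printed compound slides probed with Chrdl2 protein at 4 µg/mL for 1 h at 4 C; score merges 667 nm emission intensity with signal to noise over three replicate slides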
condition_notes: fluorescence 635 nm, higher = more signal
property: composite z-score

[[record]]
compound = "[N-]=[N+]=NCc1ccccc1[C@H]1OC(c2ccc(OCCCO)cc2)=N[C@@]1(Cc1ccccc1)C(=O)N1CCCCC1"
readout_value = -0.237

[[record]]
compound = "O=C1NC(=O)C2C1C=CC(C(O)c1ccc(I)cc1)N2Nc1ccc(Cl)cc1Cl (stereo unspecified)"
readout_value = -0.776

[[record]]
compound = "Cc1ccc(/C=C/C=O)cc1"
readout_value = 0.24

[[record]]
compound = "CS(=O)(=O)CCOC(=O)C1=CC(CCCO)=CC(c2ccc(CN3CCCC3)cc2)N(Cc2cccc(OC(F)(F)F)c2)C=C1C(=O)OCCS(C)(=O)=O (stereo unspecified)"
readout_value = 0.379

[[record]]
compound = "CC(C)NC(=O)[C@@H]1c2ccccc2C(=O)N(C(C)C)[C@H]1c1ccc(CO)cc1"
readout_value = -1.38

[[record]]
compound = "COc1ccc([Si](C)(C)[C@H]2[C@H](CCO)O[C@@]3(C(=O)N(Cc4ccccc4)c4ccc(N5CCCCC5=O)cc43)[C@@H]2C)cc1"
readout_value = 0.207

[[record]]
compound = "C=CC[C@@]1(C(=O)N2CCCCC2)N=C(c2ccc(OCCCO)cc2)O[C@@H]1c1ccccc1N=[N+]=[N-]"
readout_value = -0.294

[[record]]
compound = "CC1CC/C=C\\[C@H]2OC34C=CCN(c5ccc6ccccc6c5)C(=O)[C@H]3N(CCO)C(=O)[C@@H]4C2C(=O)O1 (stereo partly specified)"
readout_value = -0.628

[[record]]
compound = "C=CCC(OC(C)=O)[C@@H]1[C@@H](N(Cc2ccc(-c3ccccc3)cc2)C(=O)Cc2ccc(F)cc2)c2cc(OCCCO)ccc2N1C(=O)c1ccc2ccccc2c1 (stereo partly specified)"
readout_value = -0.132

[[record]]
compound = "CC(C)[Si](C#CCCCC#N)(Oc1ccccc1Br)C(C)C"
readout_value = 0.299

[[record]]
compound = "COCC(=C=CC[C@H](O)c1cccc(OCCO)c1)CCO"
readout_value = 0.247

[[record]]
compound = "COc1ccc([Si](C)(C)[C@@H]2[C@@H](CC(=O)N3CCC[C@H]3CO)O[C@]3(C(=O)N(Cc4cccc(I)c4)c4ccccc43)[C@H]2C)cc1"
readout_value = 1.45

[[record]]
compound = "CCCC[C@@H]1C[C@H]1[C@@H](NC(=O)c1cccnc1)c1ccc(Cl)cc1"
readout_value = -1.95

[[record]]
compound = "C=CCNC(=O)[C@@H]1[C@H]2C(=O)O[C@H](c3ccccc3)[C@H](c3ccccc3)N2[C@H](c2ccc(OCCO)cc2)[C@@]12C(=O)N(C(=O)OCCOC)c1ccc(C#CCNC(N)=O)cc12"
readout_value = 0.305

[[record]]
compound = "COc1ccc([C@H]2OC[C@@H]3CCC(=O)N32)cc1"
readout_value = 0.504

[[record]]
compound = "C[N+](C)(C)CCCC[C@@H]1NC(=O)[C@@H]2C[C@H](C(=O)NCCCCCCNC(=O)CS)[C@H](c3ccc(O)cc3)N2C1=O"
readout_value = -0.377


---

assay_text: JC-1 mitochondrial signal, unstimulated myeloma cells – cell-based, JC-1 fluorescence, RPMI8226, 24 h, 100 nL compound, profiling panel (AID 1169); also: test concentration not given here
condition_notes: JC-1 mitochondrial potential fluorescence, higher = more signal
Mark rule not met for z-score values under -0.2, and rule met for everything at or above.

[[record]]
smiles_record = "C=C(/C(=C/C[C@H](OC(=O)c1ccncc1)c1ccc(OCCO)cc1)c1cc(C(=O)OC)ccc1OC)C(C)C"
label = "rule met"

[[record]]
smiles_record = "COc1ccc([C@H]2OC[C@@H]3CCC(=O)N32)cc1"
label = "rule not met"

[[record]]
smiles_record = "COC(=O)c1c(CC[C@@H](CO)NC(=O)N[C@H](Cc2ccccc2)Cn2cc(-c3ccccn3)nn2)oc(C(C)=O)c1C(=O)OC"
label = "rule met"

[[record]]
smiles_record = "CO[C@H]1O[C@H](CO)[C@@H](OC(=O)Nc2ccccc2)[C@@H]2OC(=O)[C@@H](Cc3ccc4ccccc4c3)C/C=C/C[C@H](Cc3ccc4ccccc4c3)C(=O)O[C@@H]12"
label = "rule not met"

[[record]]
smiles_record = "CC(C)Cc1ccc(CN2CC[C@@H](N)C2)cc1"
label = "rule not met"

[[record]]
smiles_record = "CCCCCCc1nc(-c2ccc(-c3ccc(Cl)c(Cl)c3)o2)c(C)c2c1[Si](C(C)C)(C(C)C)OC2"
label = "rule not met"

[[record]]
smiles_record = "Cc1ccc(S[C@]2(C(=O)O)CC(=O)N(C(C)C)[C@@H]2c2ccc(CO)cc2)cc1"
label = "rule met"

[[record]]
smiles_record = "CN(C)CCCCNC(=O)[C@@H]1C[C@@H]2C(=O)N[C@@H](CCCCN)C(=O)N2[C@@H]1c1ccc(O)cc1"
label = "rule not met"


---

target_or_system: Left-right determination factor 2 (Homo sapiens) (UniProt O00292)
Sequence (O00292 whole entry, looked up): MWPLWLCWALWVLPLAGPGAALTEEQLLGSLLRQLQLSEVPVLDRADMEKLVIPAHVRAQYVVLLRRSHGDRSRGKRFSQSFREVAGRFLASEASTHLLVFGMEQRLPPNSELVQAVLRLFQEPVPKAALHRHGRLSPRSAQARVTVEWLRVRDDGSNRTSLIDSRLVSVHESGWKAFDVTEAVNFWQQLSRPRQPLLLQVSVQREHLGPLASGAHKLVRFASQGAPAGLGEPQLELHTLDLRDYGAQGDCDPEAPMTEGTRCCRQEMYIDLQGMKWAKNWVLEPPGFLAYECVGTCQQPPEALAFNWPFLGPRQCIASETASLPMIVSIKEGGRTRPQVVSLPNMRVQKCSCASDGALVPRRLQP
assay_text: small molecules binding LEFTY2 protein – biochemical, small-molecule microarray, 635 nm fluorescence scan, primary screen (AID 1110)
condition_notes: higher = more signal
I would appreciate it if you labelled entries Condition met when composite z-score is -0.02 or higher, otherwise Condition not met.

[[record]]
molecule = "CCCCN1CC=CC23O[C@@H]4C=CCCOC(=O)C4[C@H]2C(=O)N(CCCCCO)[C@@H]3C1=O (some centres undefined)"
label = "Condition not met"

[[record]]
molecule = "COCCCNC(=O)[C@@]1(Cc2ccccc2)N=C(c2ccc(OCCCO)cc2)O[C@H]1c1ccccc1CN=[N+]=[N-]"
label = "Condition met"

[[record]]
molecule = "O=C1NC(=O)C2C1C=CC(C(O)c1ccc(I)cc1)N2Nc1ccccn1 (centres undefined)"
label = "Condition met"

[[record]]
molecule = "C=CC1c2cc(O)c(OC)cc2CCN1Cc1cccc(OC(F)(F)F)c1 (centres undefined)"
label = "Condition not met"

[[record]]
molecule = "COC(=O)c1c2oc(c1C(=O)OC)C(=O)N[C@@H](C(C)C)Cn1cc(nn1)C1(CCCCC1)NC(=O)N[C@H](CO)CC2"
label = "Condition not met"

[[record]]
molecule = "CN(C)C(=O)[C@]1(Cc2ccccc2)N=C(c2ccc(OCCCO)cc2)O[C@@H]1c1ccccc1N=[N+]=[N-]"
label = "Condition met"

[[record]]
molecule = "CCOC(=O)C1=CC[C@@H](c2ccc(C(F)(F)F)cc2)N(S(=O)(=O)c2ccc(C)cc2)[C@H]1c1ccccc1"
label = "Condition met"

[[record]]
molecule = "C=C(C)[C@@H]1CC=C(C(O)C2C=CC3C(=O)NC(=O)C3N2Nc2ccc(Cl)cc2Cl)CC1 (some centres undefined)"
label = "Condition met"

[[record]]
molecule = "COCCOC(=O)N1C(=O)[C@@]2(c3cc(C#CC4(O)CCCCCC4)ccc31)[C@H](C(=O)Nc1nc3ccccc3s1)[C@H]1C(=O)O[C@H](c3ccccc3)[C@H](c3ccccc3)N1[C@@H]2c1ccccc1OCCO"
label = "Condition met"

[[record]]
molecule = "[N-]=[N+]=NCc1ccccc1[C@@H]1OC(c2ccc(OCCCO)cc2)=N[C@]1(CCS(=O)(=O)c1ccccc1)C(N)=O"
label = "Condition met"

[[record]]
molecule = "C=CC[C@]12N=C(c3ccc(OCCCO)cc3)O[C@H]1c1ccccc1N(CCS(=O)(=O)c1ccccc1)C2=O"
label = "Condition met"

[[record]]
molecule = "COC(=O)[C@@]1(Cc2ccc(F)cc2)[C@H]2c3cc(C(=O)N(C)C)n(Cc4ccc(C)o4)c3C[C@H]2CN1C(=O)c1ccccc1"
label = "Condition not met"

[[record]]
molecule = "COC(=O)[C@@]1(Cc2ccccc2)[C@H]2c3cc(C(=O)N(C)C)n(CCc4c[nH]c5ccc(O)cc45)c3C[C@H]2CN1C(=O)c1ccccc1"
label = "Condition not met"

[[record]]
molecule = "C=C(CCCC)/C(=C/C[C@@H](OC(C)=O)c1cccc(OCCO)c1)c1cnc2ccccc2c1"
label = "Condition met"

[[record]]
molecule = "C#CCN1[C@H](/C=C/C2CC2)[C@H](Cc2ccccc2)OC(=O)[C@@H]1Cc1ccccc1"
label = "Condition met"

[[record]]
molecule = "C[N+](C)(C)CCCC[C@@H]1NC(=O)[C@@H]2C[C@H](C(=O)NCCCCCCNC(=O)CS)[C@H](c3ccc(O)cc3)N2C1=O"
label = "Condition not met"

[[record]]
molecule = "CC#CC(=O)Oc1ccc(Br)cc1C=CC(=O)OCC"
label = "Condition not met"

[[record]]
molecule = "OCCCC1=CC(C2CC2)N(Cc2cccc(OC(F)(F)F)c2)CC1 (centres undefined)"
label = "Condition not met"

[[record]]
molecule = "C=C(C(=O)CC[C@H](OC(C)=O)c1ccccc1OCCO)C(C)C"
label = "Condition not met"

[[record]]
molecule = "O=C1C2C=CC(C(O)c3c(F)cccc3Cl)N(Nc3ccccc3F)C2C(=O)N1c1ccccc1 (centres undefined)"
label = "Condition not met"

[[record]]
molecule = "COc1ccc(C#Cc2ccc3c(c2)[C@]2(C(=O)N3)[C@H](c3ccc(O)cc3)N3[C@H](c4ccccc4)[C@H](c4ccccc4)OC(=O)[C@H]3[C@@H]2C(=O)N2CCc3cc(OC)c(OC)cc3C2)cc1"
label = "Condition met"

[[record]]
molecule = "CCOC(=O)C[C@H]1[C@H](OC(=O)c2ccc(C(=O)c3ccccc3)cc2)[C@@H](NC(=O)c2ccccc2)c2cc(OCCCO)ccc2N1C(=O)c1ccccc1"
label = "Condition met"

[[record]]
molecule = "COC(=O)C(CC#Cc1ccc2c(c1)[C@]1(C(=O)N2)[C@H](c2ccccc2OCCO)N2[C@H](c3ccccc3)[C@H](c3ccccc3)OC(=O)[C@H]2[C@@H]1C(=O)O)C(=O)OC"
label = "Condition met"

[[record]]
molecule = "CC(C)NC(=O)[C@@]1(Cc2ccccc2I)c2ccccc2C(=O)N(Cc2ccccc2Cl)[C@H]1c1ccc(CO)cc1"
label = "Condition met"

[[record]]
molecule = "COc1ccc(C(=O)Nc2cccc(CN3C(=O)[C@]4(O[C@H](CCn5cc(CCO)nn5)[C@@H]([Si](C)(C)c5ccc(OC)cc5)[C@@H]4C)c4ccccc43)c2)cc1"
label = "Condition met"

[[record]]
molecule = "NCCCCCNC(=O)[C@H]1C[C@H]2C(=O)N[C@@H](Cc3ccccc3)C(=O)N2[C@H]1c1cccc(OCCO)c1"
label = "Condition met"

[[record]]
molecule = "COC(=O)[C@@]1(Cc2ccc(F)cc2)[C@H]2c3cc(C(=O)N(C)C)n(Cc4cc(C)n(C)n4)c3C[C@H]2CN1C(=O)c1ccccc1"
label = "Condition not met"

[[record]]
molecule = "O=C1OCC=C[C@H]2OC34C=CCN(CCN5CCOCC5)C(=O)[C@H]3N(CCO)C(=O)[C@@H]4[C@@H]12 (some centres undefined)"
label = "Condition not met"

